system: Paracoccus sp.; experiment: Antibiofilm activity against Paracoccus sp. 4M6 assessed as microbial adhesion at 200 uM after 15 hrs by Syto61 based-fluorescence analysis relative to control; type: functional
Quick reference: Activity of the listed items.
Express it in %; write the number only.

Record excerpt, results attached:
>>> df
                                   compound  quantitative_result
0  COc1ccc(CCn2cc(C(=O)NCCc3cc(Br)c(O)c(Br)c3)nn2)cc1Br                 28.8
1  COc1ccc(CCn2cc(C(=O)NCCc3ccc(O)cc3)nn2)cc1Br                 28.2
2  O=C(NCCc1cc(Br)c(O)c(Br)c1)c1cn(CCc2cc(Br)c(O)c(Br)c2)nn1                 38.7

Field: next compound
Reported Activity for CC1(C)S[C@@H]2[C@H](NC(=O)[C@H](N)c3ccccc3)C(=O)N2[C@H]1C(=O)O [AMPICILLIN] : what is it?
33.9
